Reported INHIBITION values for the following compounds.
Test system: Plasmodium berghei
Assay: Screen against P. berghei liver stage (PbLuc), transformed with Luciferase, at 10uM
Format: functional, HepG2
Conditions: tested at 10 uM
The whole screen tested about 69,000 compounds, of which about 8,600 (12%) showed an effect of 50% or more. Shown is part of a subset that was picked to be rich in strong results.
Unit % implied. Number only.

In the examples that follow, each entry is paired with its recorded INHIBITION.
- COMPOUND: "CC(C)CNC(=O)CNc1c(NCc2ccco2)c(=O)c1=O"
  SYSTEM NAME: "Plasmodium berghei"
  ASSAY RESULT: 31.3
- COMPOUND: "COc1cc(C(C)NCc2ncccc2C)ccc1SC(F)F (centres undefined)"
  SYSTEM NAME: "Plasmodium berghei"
  ASSAY RESULT: 66.2
- COMPOUND: "CS(=O)(=O)NCC1(c2ccccc2Br)CC1"
  SYSTEM NAME: "Plasmodium berghei"
  ASSAY RESULT: 46.6
- COMPOUND: "COc1ccc(C(C)NCc2nnc(C)s2)cc1F (centres undefined)"
  SYSTEM NAME: "Plasmodium berghei"
  ASSAY RESULT: 39.4
- COMPOUND: "c1ccc(-n2cc(CNC3CCc4ncnn4C3)nn2)cc1 (centres undefined)"
  SYSTEM NAME: "Plasmodium berghei"
  ASSAY RESULT: 41.45
- COMPOUND: "c1cc2nc(C3CCNCC3)nn2cc1NC1CCC1"
  SYSTEM NAME: "Plasmodium berghei"
  ASSAY RESULT: 40.3
- COMPOUND: "Cc1ccc(OCCN(C)C(C)c2cccc(S(N)(=O)=O)c2)cc1 (centres undefined)"
  SYSTEM NAME: "Plasmodium berghei"
  ASSAY RESULT: -31.8
- COMPOUND: "Cc1noc(CS(=O)(=O)C/C=C/c2ccccc2)n1"
  SYSTEM NAME: "Plasmodium berghei"
  ASSAY RESULT: 60.2
- COMPOUND: "O=C1COC2(CCN(Cc3ccoc3)CC2)CN1"
  SYSTEM NAME: "Plasmodium berghei"
  ASSAY RESULT: -0.813
- COMPOUND: "O=S(=O)(C/C=C/c1ccccc1)Cc1nc(C2CC2)no1"
  SYSTEM NAME: "Plasmodium berghei"
  ASSAY RESULT: 45

Req: For the compound `O=C(NCCc1noc(-c2ccccn2)n1)NCC1CCCC1` , give its measured INHIBITION value.
Resp: -18.3

Req: Provide one value: measured INHIBITION of `CNS(=O)(=O)c1cccc(CNC(=O)c2cc(C)no2)c1`
Resp: -4.16

Req: Determine its reported INHIBITION: `Cc1nc2ccccc2c(=O)n1CCC(=O)N1CCCC1`
Resp: 17.36

Req: Answer with the recorded INHIBITION for the compound listed here: COc1ccc(C(C)NCc2scnc2C)cc1Cn1cccn1 (centres undefined)
Resp: 35.3

Req: Provide only the value of recorded INHIBITION for COc1ccc(CNC2CCCc3nc(N(C)C)ncc32)c(OC)c1 (centres undefined)
Resp: 16.7

Req: Supply reported INHIBITION belonging to this compound: CCCC(=O)N1CCCC1(C)c1nc(C)no1 (centres undefined)
Resp: -3.97

Req: Return value of INHIBITION for input c1cncc(-c2noc(CN3CCOC(Cn4cccn4)C3)n2)c1 (centres undefined) , no commentary.
Resp: 16.1

Req: Output measured INHIBITION for this item: `CC(=O)NCCn1ccc(-c2ccccn2)n1`
Resp: -13

Req: Using known records, supply INHIBITION for `C[C@@H]1C[C@H]2CN(C(=O)c3ccncn3)C[C@H]2O1`
Resp: -0.813

Req: Query INHIBITION for `Cn1cc(C(=O)NCc2cncc3c2CCN(CC2CC2)C3)cn1`
Resp: 28.5

Req: Note down INHIBITION recorded for `CCn1cc(CN2C[C@@H]3CCCN3C[C@H]2CCSC)cn1`
Resp: 35.2

Req: Specify measured INHIBITION for `COc1ccccc1CC(=O)N(C)Cc1cc(C)on1` .
Resp: 10

Req: Read off the recorded INHIBITION for Cc1nn(C)c(N(C)C)c1CNC1CCc2c(Cl)cccc21 (centres undefined)
Resp: 19.915

Req: Tell us which INHIBITION value is on record for Cc1ccc(S(=O)(=O)NC(=O)CCC2CCCO2)cc1 (centres undefined)
Resp: -7.35

Values compiled from ChEMBL document CHEMBL4513216.
